experiment: Human HepG2 cell viability assay in 384 well format; assay type: toxicity, cell-based; parameters: dose 125 nL, time 70.5 hour; concentration not given beside the values; details: HepG2 cells, read-out: Inhibition
endpoint-name: cytotoxicity at 70.5 h (%)
Report only the number, with the unit % understood.

// known answers, use as guide
1) Cn1cc(CN2CCCN(C(=O)c3ccc4ccccc4n3)CC2)cn1: -13
2) O=C(c1cccnc1)N1CCn2cc(CN3CCCC3)nc2C1: -6.71
3) Cc1cc(CCC(N)=O)cc(C2CCCN2Cc2ccccn2)n1 (stereo not drawn): -9.69
4) O=C(CCCNC(=O)Nc1ccc(F)cc1F)Nc1cn[nH]c1: -5.08
5) CCOCC(=O)N1C[C@@H]2CC[C@H](C1)N(Cc1ccccn1)C2=O: -9.63
6) CN(C)CCN(Cc1ccc(Cl)cc1)C(=O)c1ccncc1: -1.83
7) Cc1ccoc1C(=O)N1C[C@@H](OCC2CC2)[C@H]2OCCC[C@H]21: -1.01
8) CC1CCN(c2cc(-n3cnc(C(=O)N4CCSCC4)c3)ncn2)CC1: -13.5

Ask | Suppose we examine the compound CC(=O)Nc1ccc(CN2CCc3[nH]cnc3C2c2ccc(C)o2)cc1 (stereo not drawn) ; what cytotoxicity at 70.5 h value has been reported?
Reply | -6.39

Ask | Suppose we examine the compound COc1cccc(C(=O)N2CCCCC2c2nccs2)c1OC (stereo not drawn) ; what cytotoxicity at 70.5 h value has been reported?
Reply | 2.23

Ask | Suppose we examine the compound N#Cc1cnc(NCCCN2C(=O)COc3ccccc32)c(Cl)c1 ; what cytotoxicity at 70.5 h value has been reported?
Reply | 2.01

Ask | Suppose we examine the compound CC(C)Cc1nc(NC(=O)c2cc(-c3cccnc3)n[nH]2)n[nH]1 ; what cytotoxicity at 70.5 h value has been reported?
Reply | -5.07

Ask | Suppose we examine the compound CCOc1ncccc1C(=O)N(C)Cc1ncc(C)c(OC)c1C ; what cytotoxicity at 70.5 h value has been reported?
Reply | -2.95

---

assay: Human HepG2 cell viability assay in 384 well format; type: toxicity, cell-based; design: dose 125 nL, time 70.5 hour; concentration not given beside the values; conditions: HepG2 cells, read-out: Inhibition
cytotoxicity at 70.5 h values, listed per item
Report only the number, with the unit % understood.

// known answers, use as guide
1. Cc1cccnc1N1CCN(C(=O)CCc2ccccn2)CC1: 20.1
2. CC(C)C1CN(c2ncc(F)cn2)CCC(=O)N1Cc1ccc(F)cc1 (centres undefined): -6.84
3. CN(C)c1nc(N)nc(CN2CCC(c3nc4ccccc4o3)CC2)n1: -7.79
4. CCNC(=O)CN1CCN(Cc2nc3c(F)cccc3n2CC)CC1: 0.0175
5. O=C(CCc1ccccc1)N1C[C@H]2CCN[C@H]2C1: -7.82

Ask | Suppose we examine the compound Cc1ccc(CN2CCCC3(COCCN(Cc4c[nH]nn4)C3)C2)s1 (centres undefined) ; what cytotoxicity at 70.5 h value has been reported?
Reply | 19.3

Ask | Suppose we examine the compound CC(C)=CCN1CCNC(=O)C1CC(=O)N1CCc2sccc2C1 (centres undefined) ; what cytotoxicity at 70.5 h value has been reported?
Reply | -3.67

Ask | Suppose we examine the compound Cc1ccccc1CNC(=O)CN1CCN(Cc2nccn2C)CC1 ; what cytotoxicity at 70.5 h value has been reported?
Reply | -20.5

Ask | Suppose we examine the compound COc1ccc(C2CN(c3nc(C)cc(C)n3)CCN2C(C)=O)cc1 (centres undefined) ; what cytotoxicity at 70.5 h value has been reported?
Reply | -4.4

Ask | Suppose we examine the compound CN1CCC/C1=N\S(=O)(=O)c1ccc(NC(=O)CCc2cccs2)cc1 ; what cytotoxicity at 70.5 h value has been reported?
Reply | -1.04

Ask | Suppose we examine the compound O=S(=O)(N1CCCC1)N1CC[C@H](c2ccccc2)[C@H]2NCCCC[C@H]21 ; what cytotoxicity at 70.5 h value has been reported?
Reply | -2.6

Ask | Suppose we examine the compound O=C(c1cccc(F)c1)N1CCCN(Cc2cscn2)CC1 ; what cytotoxicity at 70.5 h value has been reported?
Reply | 21.5

Ask | Suppose we examine the compound CN(C)CCN1CC[C@@H]2O[C@@H](COCC(=O)N3CCCC3)CC[C@@H]21 ; what cytotoxicity at 70.5 h value has been reported?
Reply | -0.268

Ask | Suppose we examine the compound Cn1c(C(N)=O)ccc1-c1ccccc1 ; what cytotoxicity at 70.5 h value has been reported?
Reply | 6.66

Ask | Suppose we examine the compound O=C(O)CCCN1C[C@@H](c2ccccc2F)[C@@]2(CCCCC(=O)N2)C1 ; what cytotoxicity at 70.5 h value has been reported?
Reply | -2.59

Ask | Suppose we examine the compound Cc1ccc(N2CCCC(c3[nH]ncc3Cc3ccccc3)C2)nn1 (centres undefined) ; what cytotoxicity at 70.5 h value has been reported?
Reply | 7.65

Ask | Suppose we examine the compound CN(C)CCNC(=O)c1cc2n(n1)CCN(C(=O)c1ccc[nH]1)C2 ; what cytotoxicity at 70.5 h value has been reported?
Reply | -7.1

Ask | Suppose we examine the compound Nc1nnc(C2CC(=O)N(c3ccccc3)C2)s1 (centres undefined) ; what cytotoxicity at 70.5 h value has been reported?
Reply | -16.4

Ask | Suppose we examine the compound c1ccc(C2CCCN(c3ncnc4c3CCNC4)CC2)cc1 (centres undefined) ; what cytotoxicity at 70.5 h value has been reported?
Reply | 2.81

---

test: Human HepG2 cell viability assay in 384 well format; format: toxicity, cell-based; set-up: dose 125 nL, time 70.5 hour; concentration not given beside the values; details: HepG2 cells, read-out: Inhibition
endpoint-name: cytotoxicity at 70.5 h (%)
Report only the number, with the unit % understood.

// known answers, use as guide
1. CCN(CC)c1ccc(NC(=O)NC(C)Cn2cccn2)cn1 (stereo not drawn): -6.74
2. O=C(CC1CCCO1)Nc1cccc(N2CCN(CC3CC3)CC2)c1 (stereo not drawn): 0.099

Ask | Suppose we examine the compound CN(C)C(=O)C1CCN(Cn2nc(-c3ccc(F)cc3)oc2=O)CC1 ; what cytotoxicity at 70.5 h value has been reported?
Reply | -5.92

---

cytotoxicity at 70.5 h values, listed per item
test: Human HepG2 cell viability assay in 384 well format; assay type: toxicity, cell-based; design: dose 125 nL, time 70.5 hour; concentration not given beside the values; details: HepG2 cells, read-out: Inhibition
Report only the number, with the unit % understood.

// known answers, use as guide
1. Cc1ccc(C(=O)N2CCC3(CCC(=O)N(CC(C)O)C3)CC2)c(O)c1 (stereo not given): -7.72
2. COCC1CCN(S(=O)(=O)NCC2COc3ccccc3C2)CC1 (stereo not given): 13.9
3. COCCNC(=O)Cn1cc(OCc2ccc(F)cc2)c(=O)cc1C: 9.56
4. O=C(NCC1(O)CCOC1)c1ccccc1Cl (stereo not given): -3.89
5. O=C(NC[C@]12COC[C@H]1CN(Cc1nccs1)C2)c1ccsc1: -3.53
6. Cn1cccc1C(=O)N1CCC2(CCN(C(=O)c3cccnc3)C2)CC1: 3.23
7. CCn1cnnc1CNC(=O)N1CCN(c2nccs2)CC1: -3.76
8. CC(C)N(C)S(=O)(=O)N1CCCC1CC(=O)c1cccs1 (stereo not given): -0.315
9. CCc1nc2ccccc2c(=O)n1CC1(O)CCN(CC(=O)OC)CC1: -10.9

// below: cytotoxicity at 70.5 h requested for another molecule
Ask | Suppose we examine the molecule O=C1NCC2(CCCN(C(=O)c3csc(-c4cccs4)n3)C2)O1 (stereo not given) ; what cytotoxicity at 70.5 h value has been reported?
Reply | -14.3

---

cytotoxicity at 70.5 h values, listed per item
assay: Human HepG2 cell viability assay in 384 well format; format: toxicity, cell-based; set-up: dose 125 nL, time 70.5 hour; concentration not given beside the values; conditions: HepG2 cells, read-out: Inhibition
Report only the number, with the unit % understood.

// known answers, use as guide
1. COC(=O)CCNC(=O)c1cnc(Cc2ccc(F)cc2)s1: -2.52
2. COCC(C)NC(=O)NCCc1cccc(OC)c1O (stereo not given): 8.57
3. CN(C)c1nccnc1C1CCN(C2CCCCC2O)CC1 (stereo not given): -8.92
4. CC(C)c1ncc(S(C)(=O)=O)c(C2CCCNC2)n1 (stereo not given): -7.47
5. C=C1C(C)(C)[C@H]2CC[C@]1(C(=O)N1CCC(n3cc(CCO)nn3)CC1)C2: -10.3

Ask | Suppose we examine the molecule Cc1nc[nH]c1C(=O)N1CCCC2(CN(C)C(=O)O2)C1 (stereo not given) ; what cytotoxicity at 70.5 h value has been reported?
Reply | -0.146

Ask | Suppose we examine the molecule O=C(N1CCOCC1)[C@@]12CCO[C@@H]1CCN(CCN1CCCCC1)C2 ; what cytotoxicity at 70.5 h value has been reported?
Reply | -20.4

Ask | Suppose we examine the molecule CCC(=O)N1CCC2(CCC(N3CCCC3)c3ccccc32)CC1 (stereo not given) ; what cytotoxicity at 70.5 h value has been reported?
Reply | -6.38

Ask | Suppose we examine the molecule CN(C1CCCCC1)S(=O)(=O)NCC1Cc2ccccc2O1 (stereo not given) ; what cytotoxicity at 70.5 h value has been reported?
Reply | -1.4

Ask | Suppose we examine the molecule CCN(CC)Cc1cc(C(=O)N2CCC3(CCN(C)CC3)C2)c(C)o1 ; what cytotoxicity at 70.5 h value has been reported?
Reply | -14.5
